# assayed_target: T1, rat SLC34A2 (rat, UniProt Q9JJ09 1-695)
# T1 construct: whole, on cells
# T1 sequence (looked up): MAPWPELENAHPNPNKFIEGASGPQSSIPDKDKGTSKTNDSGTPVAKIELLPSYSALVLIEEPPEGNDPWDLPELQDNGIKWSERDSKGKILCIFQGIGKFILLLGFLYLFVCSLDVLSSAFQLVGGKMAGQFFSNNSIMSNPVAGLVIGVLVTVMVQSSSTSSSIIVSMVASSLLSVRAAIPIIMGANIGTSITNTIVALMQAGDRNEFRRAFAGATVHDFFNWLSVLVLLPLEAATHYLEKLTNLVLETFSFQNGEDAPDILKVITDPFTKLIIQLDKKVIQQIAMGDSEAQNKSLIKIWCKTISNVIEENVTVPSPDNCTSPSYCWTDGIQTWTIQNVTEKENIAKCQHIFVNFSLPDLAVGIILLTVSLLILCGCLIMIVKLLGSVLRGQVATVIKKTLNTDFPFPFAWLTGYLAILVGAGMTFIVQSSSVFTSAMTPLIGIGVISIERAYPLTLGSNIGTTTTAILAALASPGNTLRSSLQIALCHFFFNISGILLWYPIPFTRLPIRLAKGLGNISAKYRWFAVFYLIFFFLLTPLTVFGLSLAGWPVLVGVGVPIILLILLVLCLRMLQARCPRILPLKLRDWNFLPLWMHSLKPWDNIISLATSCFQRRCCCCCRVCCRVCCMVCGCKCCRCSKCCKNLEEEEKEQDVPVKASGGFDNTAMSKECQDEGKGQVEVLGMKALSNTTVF
# protocol: FACS, HEK293/Rat SLC34A2 cells
quantity_kind: pEC50
pEC50 field: float, defined as -log10 of concentration (mol/L).

Recorded result, 91C9F1.p1.z7 hIgG1 (antibody, V domains shown, humanized hIgG1) VH: QVQLVQSGAEVKKPGSSVKVSCKTSGFFFTEYIIHWVRQAPGQGLEWIGGIIPNNDVTNYKQNFRGRVTLTADKSTSTAYMELSSLRSEDTAVYYCARWRNAYYSAMDSWGQGTTVTVSS VL: DIQVTQSPSSLSTSVGDRVTITCTASQDVGTAVAWYQQKPGKSPKLLIYWASTRHTGVPERFTGSGSGTDFTLTISSVQPEDVATYFCQQYRTSPLTFGVGTKVEIK , pEC50: 8.58
